# subject-of-test: Human Neutrophil Elastase (human, UniProt P08246)
# test-summary: pH elution of display phage from hNE beads, extended protocol
quantity-measured: Fraction of Input recovered at pH3.5

Below: 4 binders and their reported Fraction of Input recovered at pH3.5.
binder	Fraction of Input recovered at pH3.5
AMINO1 display phage (designed binder) KEDFCQLGYSAGPCVAMFPRYFYNGTSMACETFQYGGCMGNGNNFVTEKDCLQTCRGA	0.00023 fraction of input
MUT1619 display phage (designed binder) RPDFCQLGYSAGPCVGMFSRYFYNGTSMACQTFVYGGCMGNGNNFVTEKDCLQTCRGA	0.00099 fraction of input
MA-BITI-E7-141 display phage (designed binder) RPDFCQLGYSAGPCVAMFPRYFYNGTSMACQTFVYGGCMGNGNNFVTEKDCLQTCRGA	0.0021 fraction of input
MUTT26A display phage (designed binder) RPDFCQLGYSAGPCVAMFPRYFYNGASMACQTFVYGGCMGNGNNFVTEKDCLQTCRGA	0.0019 fraction of input

Could you now consider this next binder?
Sample MA-BITI-E7-1222 display phage (designed binder) RPDFCQLGYSTGPCVAMFPRYFYNGTSMACETFQYGGCMGNGNNFVTEKDCLQTCRGA — what was its Fraction of Input recovered at pH3.5? 0.0004 fraction of input
